normalized growth by entry:
Protocol summary: chemical genetic growth profiling, strain panel (AID 1159580);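 further: tested at 20 µM; growth read once vehicle control cultures reached saturation at 30 °C; 1 = growth at the plate median or of vehicle wells; lower values mean less growth of the strain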
Test context: S. cerevisiae deletion strains, growth OD, locus YAL030W, strain snc1, hits give low values
Among all 5,500 compounds or so, about 2,000 (36%) were called active. Roughly 18% stayed inconclusive and do not appear here. Some of the results follow.

The cases that follow already have their normalized growth on record.
• NC(=O)c1ncn(C2O[C@H](CO)[C@@H](O)[C@H]2O)c1N (stereo not given in full) = 1.03 (inactive)
• CO[C@]12C[C@@H](COC(=O)c3cncc(Br)c3)CN(C)[C@@H]1Cc1cn(C)c3cccc2c13 = 1 (inactive)
• CN[C@@H]1[C@H](OC2[C@H](O[C@H]3[C@H](O)[C@@H](O)[C@H](N=C(N)N)[C@@H](O)[C@@H]3N=C(N)N)O[C@@H](C)[C@]2(O)C=O)O[C@@H](CO)[C@H](O)[C@H]1O (stereo not given in full) = 1.01 (inactive)
• CCCC(CCC)C(=O)O = 1.01 (inactive)

# input for lookup
QUERY: # normalized growth lookup, item CCCCS(=N)(=O)CCC(N)C(=O)O (stereo not given)
RESULT: 0.997 (inactive)

###

normalized growth by entry:
Protocol summary: chemical genetic growth profiling, strain panel (AID 1159580)
Test context: S. cerevisiae deletion strains, growth OD, locus YMR125W, strain sto1, hits give low values
About 2,000 (36%) of roughly 5,500 compounds were called active. About 18% were inconclusive and are not listed. Some of the results follow.
Answer field: number only, no words.

- CN(C)CCOC(=O)COc1ccc(Cl)cc1: 0.965

QUERY: # normalized growth lookup, item COc1cc(OC)c(OC)cc1C=O
RESULT: 0.991

QUERY: # normalized growth lookup, item COC(=O)CCCOc1ccc(Cl)cc1Cl
RESULT: 0.954

QUERY: # normalized growth lookup, item CC(CCC(=O)O)[C@H]1CCC2C3CC[C@@H]4C[C@H](O)CC[C@]4(C)C3CC[C@@]21C (stereo partly specified)
RESULT: 1.08

QUERY: # normalized growth lookup, item C/C=C/C(=O)N(CC)c1ccccc1C
RESULT: 1.01

QUERY: # normalized growth lookup, item COc1cc([C@H]2Oc3cc([C@H]4Oc5cc(O)cc(O)c5C(=O)[C@@H]4O)ccc3O[C@@H]2CO)ccc1O
RESULT: 1.03

###

Protocol summary: chemical genetic growth profiling, strain panel (AID 1159580)
Test context: S. cerevisiae deletion strains, growth OD, locus YDL108W, strain KIN28, hits give low values
In all, about 5,500 compounds went through this assay and about 2,000 (36%) were called active. Not shown: some 18% with an inconclusive outcome. The list shows a part of the results.
normalized growth by entry:
Answer field: number only, no words.

The cases that follow already have their normalized growth on record.
• CC1C/C(=N/Nc2ccc(Br)cc2)c2cc(Cl)ccc2S1 (stereo unspecified) = 0.598
• Cc1ccc(S(=O)(=O)Nc2ccc(Oc3ccc(F)cc3)cc2)cc1 = 0.977
• O=C(NNc1ccc(Cl)cc1)c1ccc(F)cc1F = 0.959
• O=S(=O)(Nc1ccc(Oc2ccc(OC(F)(F)F)cc2)cc1)c1cccc(Cl)c1 = 0.976
• COc1ccc(OC)c(-c2ccn[nH]2)c1OCc1ccccc1 = 0.987
• COc1cc(CC/C(C)=N/O)ccc1OCc1ccc(Cl)cc1Cl = 0.978
• COc1cc(CC/C(C)=N\O)ccc1OCc1ccc(Cl)c(Cl)c1 = 0.947
• NNC(=O)c1csc(Cc2c(Cl)sc3ccc(Cl)cc23)n1 = 1
• Cc1onc(-c2ccccc2)c1C(=O)Sc1ccc(C(F)(F)F)cn1 = 0.974
• CC1C/C(=N/Nc2ccc(Br)cc2)c2cc(Cl)ccc2S1(=O)=O (stereo unspecified) = 0.992

QUERY: # normalized growth lookup, item Oc1ccc(N=Nc2ccccn2)c(O)c1
RESULT: 0.0995

###

normalized growth by entry:
Protocol summary: chemical genetic growth profiling, strain panel (AID 1159580)
Test context: S. cerevisiae deletion strains, growth OD, locus YER111C, strain swi4, hits give low values
In all, about 5,500 compounds went through this assay and about 2,000 (36%) were called active. About 18% were inconclusive and are not listed. This is one part of the list.

The cases that follow already have their normalized growth on record.
- O=C(Nc1ccccc1)Nc1ccccc1: 0.974 (inactive)
- CC1(C)C(O)CC(O)C2(C)C1CC(O)C1(C)C2CCC2(C)C(c3ccoc3)OC(=O)C3OC321 (stereo not drawn): 0.98 (inactive)
- CN(C)CCC(c1ccc(Br)cc1)c1ccccn1 (stereo not drawn): 0.977 (inactive)
- S=P(N1CC1)(N1CC1)N1CC1: 0.99 (inactive)
- O=C(O)c1ccccc1C(=O)Nc1ccc(S(=O)(=O)Nc2nccs2)cc1: 0.973 (inactive)

QUERY: # normalized growth lookup, item CN(C)C(=O)Nc1ccc(Cl)c(Cl)c1
RESULT: 1.02 (inactive)

QUERY: # normalized growth lookup, item CC(=O)Nc1ccccc1
RESULT: 0.972 (inactive)

QUERY: # normalized growth lookup, item COc1cc([C@@H]2c3cc4c(cc3[C@H](OC(C)=O)[C@H]3COC(=O)[C@@H]23)OCO4)cc(OC)c1OC
RESULT: 1.01 (inactive)

###

normalized growth by entry:
Protocol summary: chemical genetic growth profiling, strain panel (AID 1159580);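 further: tested at 20 µM; growth read once vehicle control cultures reached saturation at 30 °C; 1 = growth at the plate median or of vehicle wells; lower values mean less growth of the strain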
Test context: S. cerevisiae deletion strains, growth OD, locus YKL193C, strain SDS22, hits give low values
Out of some 5,500 compounds screened, about 2,000 (36%) were called active. Inconclusive results (about 18%) are left out. Some of the results follow.
Answer field: number only, no words.

The cases that follow already have their normalized growth on record.
• CS(=O)(=O)c1sc(C(=O)Sc2ccc(Cl)cc2)c2c1C=CCC2 = 0.845
• O=C(CCn1c(=O)oc2ccccc21)Sc1ccc(C(F)(F)F)cc1 = 0.955
• CC1C/C(=N/Nc2ccc(Br)cc2)c2cc(Cl)ccc2S1(=O)=O (stereo not drawn) = 0.98
• S=C(Nc1cc(Cl)c(Cl)cc1Cl)Nc1ccccc1Br = 0.96
• O=C1CSC(c2ccc(C(F)(F)F)cc2)N1c1ccc(C(F)(F)F)cc1 (stereo not drawn) = 1
• COc1ccc(CC2CCC(=NOC(=O)c3ccc(C(C)(C)C)cc3)CC2)cc1 (stereo not drawn) = 0.987

QUERY: # normalized growth lookup, item COc1ccc(CC2CCC(=NOC(=O)c3c(Cl)cccc3Cl)CC2)cc1 (stereo not drawn)
RESULT: 1.02

QUERY: # normalized growth lookup, item COc1cc(CC/C(C)=N/O)ccc1OCc1ccc(Cl)cc1Cl
RESULT: 0.979

QUERY: # normalized growth lookup, item CC1C/C(=N/Nc2ccc(Br)cc2)c2cc(Cl)ccc2S1 (stereo not drawn)
RESULT: 0.498

QUERY: # normalized growth lookup, item C/C(=N/Nc1ccccc1)c1cc(Cl)cc(Cl)c1O
RESULT: 0.948

QUERY: # normalized growth lookup, item Cc1ccc(N2C(=O)CSC2c2ccc(Cl)c(Cl)c2)cc1Cl (stereo not drawn)
RESULT: 0.977

QUERY: # normalized growth lookup, item S=C(NNc1ccccc1)Nc1cc(Cl)ccc1Cl
RESULT: 0.955

QUERY: # normalized growth lookup, item COc1cc(CC/C(C)=N\O)ccc1OCc1ccc(Cl)c(Cl)c1
RESULT: 0.968

###

normalized growth by entry:
Protocol summary: chemical genetic growth profiling, strain panel (AID 1159580);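 further: tested at 20 µM; growth read once vehicle control cultures reached saturation at 30 °C; 1 = growth at the plate median or of vehicle wells; lower values mean less growth of the strain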
Test context: S. cerevisiae deletion strains, growth OD, locus YBR135W, strain CKS1, hits give low values
In all, about 5,500 compounds went through this assay and about 2,000 (36%) were called active. Inconclusive results (about 18%) are left out. The list shows a part of the results.
Answer field: number only, no words.

* COc1cc(CC/C(C)=N/O)ccc1OCc1ccc(Cl)cc1Cl | 0.978
* O=C(Nc1ccc(Cl)cc1)O/N=C\c1ccn(-c2ccccc2)n1 | 0.95
* COc1ccc(CC2CCC(=NOC(=O)c3c(Cl)cccc3Cl)CC2)cc1 (stereo unspecified) | 1.04
* CC1(C)c2ccccc2N(CCC(N)=O)C12C=Cc1c(ccc3ccccc13)O2 (stereo unspecified) | 0.97
* CC(C)(C)C(=O)/C(C#N)=C/c1c(Cl)cccc1Cl | 0.894

QUERY: # normalized growth lookup, item O=C(Nc1cccc2ccccc12)c1ccccc1O
RESULT: 0.85

###

Protocol summary: chemical genetic growth profiling, strain panel (AID 1159580);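 further: tested at 20 µM; growth read once vehicle control cultures reached saturation at 30 °C; 1 = growth at the plate median or of vehicle wells; lower values mean less growth of the strain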
Test context: S. cerevisiae deletion strains, growth OD, locus YNL307C, strain MCK1, hits give low values
About 2,000 (36%) of roughly 5,500 compounds were called active. Roughly 18% stayed inconclusive and do not appear here. This is one part of the list.
normalized growth by entry:
Answer field: number only, no words.

- C[C@@H](N)[C@@H](O)c1ccccc1: 0.984

QUERY: # normalized growth lookup, item CC(CCC(=O)O)[C@H]1CCC2C3C(C[C@H](O)[C@@]21C)[C@@]1(C)CC[C@@H](O)C[C@H]1C[C@H]3O (some centres undefined)
RESULT: 1

QUERY: # normalized growth lookup, item CC(CCC(=O)O)[C@H]1CCC2C3CC[C@@H]4C[C@H](O)CC[C@]4(C)C3C[C@H](O)[C@@]21C (some centres undefined)
RESULT: 0.993

QUERY: # normalized growth lookup, item COc1cc2c(cc1/C=C/C(=O)c1cc(OC)c(OC)cc1OC)OCO2
RESULT: 1.03

QUERY: # normalized growth lookup, item Cc1cc(O)c(C=O)c2c1C(=O)Oc1c(C)c(O)c3c(c1O2)C(O)OC3=O (centres undefined)
RESULT: 0.978

QUERY: # normalized growth lookup, item COC(=O)c1c(C)cc(OC(=O)c2c(C)c(Cl)c(O)c(C=O)c2O)c(C)c1O
RESULT: 0.98

QUERY: # normalized growth lookup, item CC(CCC(=O)O)[C@H]1CCC2C3C[C@H](O)[C@@H]4C[C@H](O)CC[C@]4(C)C3CC[C@@]21C (some centres undefined)
RESULT: 1.03

QUERY: # normalized growth lookup, item O=C(O)c1ccccc1C(=O)Nc1ccc(S(=O)(=O)Nc2nccs2)cc1
RESULT: 1

QUERY: # normalized growth lookup, item CCOC(=O)[C@H](CCc1ccccc1)N[C@@H](C)C(=O)N1Cc2ccccc2C[C@H]1C(=O)O
RESULT: 1.02
